system: T1, human PD-L1 protein (ELISA antigen) (human, UniProt Q9NZQ7 19-238, limits assumed)
T1 construct: One molecule is used for both ELISAs; also called PD-L1-biotin protein
T1 sequence (Q9NZQ7 19-238 limits assumed): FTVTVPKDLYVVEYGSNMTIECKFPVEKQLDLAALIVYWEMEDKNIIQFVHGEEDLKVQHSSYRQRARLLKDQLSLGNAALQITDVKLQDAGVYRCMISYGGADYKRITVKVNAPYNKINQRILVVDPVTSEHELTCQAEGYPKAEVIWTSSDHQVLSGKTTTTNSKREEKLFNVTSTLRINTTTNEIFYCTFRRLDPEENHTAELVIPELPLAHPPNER
assay: relative to original antibody h_Nb2 (SEQ ID NO. 5); ELISA comparison per Example 10
readout kind: Improved value of relative affinity

binder="h_Nb2_G30F (VHH, also called 88) VHH: DVQLQESGGGLVQPGGSLRLSCAASGFTFFDRWMYWLRQAPGKGLEWVSSINPAGRSTYYADSVKGRFTISRDNAKNTLYLQMNSLKSEDTAVYYCTKDPGGYQKGQGTQVTVSS" readout_kind="Improved value of relative affinity" readout_value=5.11
binder="h_Nb2_G30W (VHH, also called 89) VHH: DVQLQESGGGLVQPGGSLRLSCAASGFTFWDRWMYWLRQAPGKGLEWVSSINPAGRSTYYADSVKGRFTISRDNAKNTLYLQMNSLKSEDTAVYYCTKDPGGYQKGQGTQVTVSS" readout_kind="Improved value of relative affinity" readout_value=10
binder="h_Nb2_G30R (VHH, also called 87) VHH: DVQLQESGGGLVQPGGSLRLSCAASGFTFRDRWMYWLRQAPGKGLEWVSSINPAGRSTYYADSVKGRFTISRDNAKNTLYLQMNSLKSEDTAVYYCTKDPGGYQKGQGTQVTVSS" readout_kind="Improved value of relative affinity" readout_value=6.23
binder="h_Nb2_P100E (VHH, also called 97) VHH: DVQLQESGGGLVQPGGSLRLSCAASGFTFGDRWMYWLRQAPGKGLEWVSSINPAGRSTYYADSVKGRFTISRDNAKNTLYLQMNSLKSEDTAVYYCTKDEGGYQKGQGTQVTVSS" readout_kind="Improved value of relative affinity" readout_value=3.98
binder="h_Nb2_P100Q (VHH, also called 96) VHH: DVQLQESGGGLVQPGGSLRLSCAASGFTFGDRWMYWLRQAPGKGLEWVSSINPAGRSTYYADSVKGRFTISRDNAKNTLYLQMNSLKSEDTAVYYCTKDQGGYQKGQGTQVTVSS" readout_kind="Improved value of relative affinity" readout_value=3.41
binder="h_Nb2_G101W (VHH, also called 91) VHH: DVQLQESGGGLVQPGGSLRLSCAASGFTFGDRWMYWLRQAPGKGLEWVSSINPAGRSTYYADSVKGRFTISRDNAKNTLYLQMNSLKSEDTAVYYCTKDPWGYQKGQGTQVTVSS" readout_kind="Improved value of relative affinity" readout_value=5.92
binder="h_Nb2_G101R (VHH, also called 90) VHH: DVQLQESGGGLVQPGGSLRLSCAASGFTFGDRWMYWLRQAPGKGLEWVSSINPAGRSTYYADSVKGRFTISRDNAKNTLYLQMNSLKSEDTAVYYCTKDPRGYQKGQGTQVTVSS" readout_kind="Improved value of relative affinity" readout_value=6.5
